Provenance of the data: paper PMC3880597

# test_protocol: Pharmacokinetics and brain distribution after single sc dose to mice
# Type: in vivo
# assay_context: female, C57Bl/6J, mouse, in vivo, sc, terminal half-life in plasma
assay_metric: half-life (h)
One number for each entry, in h.

Query: Returns the measured half-life for the input compound. Input: O=S(=O)(CC1CS1)c1ccc(Oc2ccc(O)cc2)cc1 (stereo not shown)
Reply: 7.7

---

# test_protocol: Pharmacokinetics and brain distribution after single sc dose to mice
# Assay type: in vivo
# assay_context: female, C57Bl/6J, mouse, in vivo, 25 mg/kg
assay_metric: concentration at 4 h (nM)
Answers are plain numbers, in nM.

Query: May I ask what concentration at 4 h has been recorded for O=S(=O)(CC1CS1)c1ccc(Oc2ccc(O)cc2)cc1 (stereo not shown) ?
Reply: 114

---

# test_protocol: Pharmacokinetics and brain distribution after single sc dose to mice
# Type: in vivo
# assay_context: female, C57Bl/6J, mouse, in vivo, sc, 25 mg/kg
assay_metric: AUC(0-t) (µM·h)
Give bare numbers, in µM·h.

Query: Form field: reported AUC(0-t) of O=S(=O)(CC1CS1)c1ccc(Oc2ccc(O)cc2)cc1 (stereo not shown) [Compound 2]
Reply: 0.9

---

# test_protocol: Pharmacokinetics and brain distribution after single sc dose to mice
# Assay type: in vivo
# assay_context: female, C57Bl/6J, mouse, in vivo, sc, 25 mg/kg, t½β, brain
assay_metric: half-life (h)
One number for each entry, in h.

Query: What does the record list as half-life for O=S(=O)(CC1CS1)c1ccc(Oc2ccc(O)cc2)cc1 (stereo not shown) [Compound 2] ?
Reply: 8.88

---

# test_protocol: Pharmacokinetics and brain distribution after single sc dose to mice
# Assay type: in vivo
# assay_context: female, C57Bl/6J, mouse, in vivo, sc, 25 mg/kg
assay_metric: Tmax
Output should be the measured figure followed by the unit it is expressed in.

Query: So what does the record say about Tmax for O=S(=O)(CC1CS1)c1ccc(Oc2ccc(O)cc2)cc1 (stereo not shown) ?
Reply: 10 min
